run description: qHTS Assay for Lipid Storage Modulators (AID 1519)
condition notes: Drosophila S3 cells, BODIPY lipid droplet/cell ratio, laser cytometry; measured here: lipid channel max response; cells loaded with oleic acid
Results filed as inconclusive are left out.
Below: a set of entries, each annotated with reported max response.
measured endpoint: max response (%)

[[record]]
compound = "CN1CCC2=C[C@H](O)[C@@H]3OC(=O)c4cc5c(cc4[C@H]3[C@H]21)OCO5"
unit_of_measurement = "%"
readout_number = -1.93

[[record]]
compound = "c1ccc(CN2CCC3(CCNCC3)CC2)cc1"
unit_of_measurement = "%"
readout_number = 27.4

[[record]]
compound = "CC(=O)OC1CC(OC(C)=O)[C@]2(C)C(CC(OC(C)=O)[C@]3(C)C2CC[C@@]2(C)C(c4ccoc4)C[C@H]4O[C@]432)C1(C)C (stereo partly drawn)"
unit_of_measurement = "%"
readout_number = 19.4

[[record]]
compound = "COc1cc2c(cc1O)[C@H]1Cc3ccc(OC)c(O)c3CN1CC2"
unit_of_measurement = "%"
readout_number = -3.7

[[record]]
compound = "COc1cc2c(cc1O)CCNC2C (stereo not drawn)"
unit_of_measurement = "%"
readout_number = 17.5

[[record]]
compound = "CN1C(=O)CCS(=O)(=O)[C@@H]1c1ccc(Cl)cc1"
unit_of_measurement = "%"
readout_number = -4.68

[[record]]
compound = "COC1C(O)C(C)O[C@H](OC2CC[C@@]3(C=O)C4CC[C@]5(C)C(C6=CC(=O)OC6)CC[C@@]5(O)C4CC[C@@H]3C2)C1O (stereo partly drawn)"
unit_of_measurement = "%"
readout_number = 24.5

[[record]]
compound = "NCC[C@H](O)C(=O)N[C@H]1C[C@@H](N)[C@@H](O[C@H]2O[C@@H](CN)[C@@H](O)[C@@H](O)[C@@H]2N)[C@@H](O[C@H]2O[C@@H](CO)[C@@H](O)[C@@H]2O)[C@@H]1O"
unit_of_measurement = "%"
readout_number = -13.9


* * *

run description: Primary qHTS to identify inhibitors of SARS-CoV-2 cell entry (AID 1645846)
condition notes: SARS-CoV-2 pseudovirus cell entry assay, luminescence; at 57.1 µM (top of the series) unless noted
From the text: Assay Provider: Wei Zheng, Ph.D. National Center for Advancing Translational Sciences, National Institute of Health, Rockville, MD. SARS-CoV-2 spike protein, within the viral envelope, mediates viral attachment and infection of host cells. The SARS-CoV-2 spike protein specifically binds to the host receptor ACE2 (Angiotensin-converting enzyme 2). […] 11. […] Read luminescence signal (Viewlux plate reader, PerkinElmer). […]
Results filed as inconclusive are left out.
measured endpoint: activity change, negative = inhibition (%)

[[record]]
compound = "c1cn2cc(-c3ccc4cn[nH]c4c3)nc(Nc3ccc(N4CCOCC4)cc3)c2n1"
measured_endpoint = "activity change, negative = inhibition"
readout_number = -27

[[record]]
compound = "CC=CC1C(C(=O)OCc2c(F)c(F)c(COC)c(F)c2F)C1(C)C (stereo not given)"
measured_endpoint = "activity change, negative = inhibition"
readout_number = -7.64

[[record]]
compound = "CN1C2CC[C@@H]1CC(OC(=O)[C@H](CO)c1ccccc1)C2 (stereo not given in full)"
measured_endpoint = "activity change, negative = inhibition"
readout_number = -26.3

[[record]]
compound = "CO[C@H]1O[C@@H]2O[C@@]3(C)CC[C@H]4[C@H](C)CC[C@@H]([C@H]1C)[C@@]24OO3"
measured_endpoint = "activity change, negative = inhibition"
readout_number = -14.8

